test: Agilent ZORBAX 300 SB-C18, 150 × 1 mm, 3.5 µm; A: water + 0.01% heptafluorobutyric acid; B: acetonitrile + 0.01% heptafluorobutyric acid; gradient (min/%B) 0/0 100/90; details: stereoisomer not certain
Reported LC retention time by item:

compound	LC retention time / min
Cc1ccc2[nH]cc(C=O)c2c1	9.98
CCOC(=O)C1(c2ccccc2)CCN(C)CC1	9.81
COc1ccc2cnn(-c3ccccc3)c(=O)c2c1OC	11.5
O=S(=O)(O)CCN1CCOCC1	1.67
COC(=O)c1ccccc1-c1cc(C(=O)OC)c2ccccc2n1	15
Nc1ncnc2ccccc12	6.84
CCOc1ccc(CCNC(=O)N(c2ccccc2)c2ccccc2)cc1OCC	16
CC(C)(C)c1ccc(C2Nc3ccccc3C(=O)N2c2ccccc2)cc1 (configuration not stated)	16.7
COc1cc(C2ON=C(CN3CCOCC3)C2C)c(OC)c2c1OCO2 (configuration not stated)	9.6
CCCNC(C)C(=O)Nc1ccccc1C (configuration not stated)	9.17
C=CCN1CCNCC1	7.39
CCCCN(CCCC)C(=O)c1ccc(OC(C)=O)cc1	15.3

====

assay: Agilent ZORBAX 300 SB-C18, 150 × 1 mm, 3.5 µm; A: water + 0.01% heptafluorobutyric acid; B: acetonitrile + 0.01% heptafluorobutyric acid; gradient (min/%B) 0/0 100/90; settings: stereoisomer not certain

compound	LC retention time (min)
O=C(C1c2ccccc2Oc2ccccc21)N1CCCc2ccccc21	17.8
Cn1c(=O)c2c(-c3ccccc3)n(Cc3ccccc3)cc2n(C)c1=O	14.3
Cc1cc(C=O)c(C)n1C(C)C	11.1
Cn1c(O)c(Cc2ccc(OCc3ccccc3)cc2)c(=O)n(C)c1=O	15
O=C1CCNc2ccc(-c3ccccc3)cc21	13.1
Cc1cccc(C(=O)NNC(=O)c2ccccc2C(=O)c2ccccc2)c1	13.3
Nc1ccccn1	6.12
COC(=O)CN1CCCC1=O	6.91
CCCCN(C)CCCC	8.6
CC1NC(=O)N(c2cccc(N)c2)C1=O (stereo not given)	7.05
Nc1ccccc1N	6.66
COC(=O)Cn1c(C)cc(C)c(N)c1=O	7.8
CCC(c1ccc(C)cc1)N(NC(=O)C(O)(c1ccc(C)cc1)c1ccc(C)cc1)C(=O)c1ccccc1 (stereo not given)	18.3
CC(=O)Oc1ccccc1C(=O)NC(C)(C)C	11.2
CN1COc2ccc3ccccc3c2C1	9.56
c1cc(-c2noc(-c3cnccn3)n2)ccn1	8.8
Cn1c2nc(=O)[nH]c(=O)c-2nc2ccccc21	8.38
Cc1nc2ccccc2nc1C=O	10.9
CCC1(c2ccccc2)C(=O)NC(=O)N(C)C1=O (stereo not given)	11.3
Oc1cccc(N2Cc3ccccc3C2)c1	13.9
OCCCCNCc1ccccc1	7.61
C[N+]1(C)CCCCC1	5.95
Nc1cccc(N)n1	6.11
Cc1ncc(C[n+]2csc(CCOP(=O)(O)OP(=O)(O)O)c2C)c(N)n1	1.62
O=C(O)C1Cc2ccccc2CN1C(=O)c1ccccc1 (stereo not given)	11.2
Cc1cc(C)nc(Nc2ccccc2C)n1	10.7
O=Cc1c(-c2ccccc2)[nH]c2ccccc12	12.7
Cn1c(=O)c2ccc(C(=O)Nc3ccc4ccccc4n3)cc2c(=O)n1C	10.4
c1ccc(CNc2ccccn2)cc1	8.6
COc1cc(CCN)cc(OC)c1OC	8.22
Cc1ccc(C(=O)Cn2c(=N)n(C)c3ccccc32)cc1	10.6
CN1CCCCC1=O	7.29
Cc1[nH]c2ccccc2c1C=NNC(N)=S	9.71
Cc1ccc2nc3nc(C)cc(C)c3c(N)c2c1	8.99
Cc1ccnc2c1ccc1cccnc12	8.43
CCN(CC)c1ccc(C2Nc3ccccc3C(CC)(CC)O2)cc1 (stereo not given)	13.8
O=c1c(Cc2ccccc2)c(O)c2ccccc2n1Cc1ccccc1	15.2
CNC(=S)N1CCCCC1	8.86
CCc1ccc(C2Nc3ccccc3C(=O)N2c2ccc(N(C)C)cc2)cc1 (stereo not given)	13.7
CNC(C)=O	2.1
CCCCCCNC(=O)c1ccc(OC(C)=O)cc1	13.8
CC1CNC(C)CN1 (stereo not given)	6.62
C=Cn1ccnc1	6.3
CC(=O)Nc1ccccc1N	6.82
CC(C)NCC(O)COc1ccc(CCOCC2CC2)cc1 (stereo not given)	10.7
